Target: KSP motor domain (Homo sapiens, UniProt P52732)
Sequence (P52732 18-359 limits assumed): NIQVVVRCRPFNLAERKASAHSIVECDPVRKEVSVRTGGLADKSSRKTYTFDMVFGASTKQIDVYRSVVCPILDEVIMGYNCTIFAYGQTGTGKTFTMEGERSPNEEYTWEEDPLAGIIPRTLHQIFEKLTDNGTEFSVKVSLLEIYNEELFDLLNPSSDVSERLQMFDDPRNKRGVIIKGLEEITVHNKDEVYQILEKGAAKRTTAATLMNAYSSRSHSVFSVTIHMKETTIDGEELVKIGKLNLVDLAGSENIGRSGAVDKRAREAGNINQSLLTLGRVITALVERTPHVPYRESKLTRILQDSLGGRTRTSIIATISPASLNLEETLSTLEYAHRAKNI
Assay: biochemical
Settings: KSP inhibitory activity, end-point assay; class symbols (Table 1); read-out: IC50
pIC50: −log10 of the molar value.
Measure: pIC50

Worked set:
CC(C)(C)C1CCc2nc3sc(C(N)=O)cc3cc2C1 (stereo not shown) [Example 64]; > 7.00
CC(C)(C)[C@@H]1CCc2nc3sc(C(=O)N[C@H](CN)c4cccc(NC(=O)c5cnc6ccccc6n5)c4)cc3cc2C1; > 7.00
CC(C)(C)[C@@H]1CCc2nc3sc(C(=O)N[C@H](CNCCO)c4cccc(NC(=O)c5ncco5)c4)cc3cc2C1; > 7.00

Now look at this one.
**Q:** Reported pIC50, compound CN(C)C(=O)c1cc2cc3c(nc2s1)CCC(C(C)(C)C)C3 (stereo not shown) : ____
**A:** < 5.00

---

target: KSP motor domain (Homo sapiens, UniProt P52732); assay: biochemical; conditions: KSP inhibitory activity, end-point assay; class symbols (Table 1); read-out: IC50
Readings of IC50 for the listed molecules

Worked set:
CC(C)(C)C1CCc2nc3sc(C(=O)NC(CO)(CO)CO)cc3cc2C1 (centres unmarked) [Example 98]; 1000 to 10000 nM
CC(C)(C)C1CCc2nc3sc(C(=O)N4CCCC[C@@H]4C(=O)O)cc3cc2C1 (some centres unmarked) [Example 91]; > 10000 nM
CCC(C1CCc2nc3sc(C#N)c(N)c3cc2C1)C(C)(C)C (centres unmarked) [Example 29]; > 10000 nM

**Q:** Reported IC50, molecule CC(C)(C)[C@@H]1CCc2nc3sc(C(=O)N[C@H](CN)c4cccc(NC(=O)c5csnn5)c4)cc3cc2C1 [Example 257] : ____
**A:** < 100 nM

**Q:** Reported IC50, molecule CC(C)(C)[C@@H]1CCc2nc3sc(C(=O)N[C@H](CN)c4cccc(NC(=O)c5c[nH]cn5)c4)cc3cc2C1 [Example 248] : ____
**A:** < 100 nM

---

molecular target: KSP motor domain (Homo sapiens, UniProt P52732); test: biochemical; conditions: KSP inhibitory activity, end-point assay; class symbols (Table 1)
Measure: IC50 (nM)

Worked set:
CC(C)(C)C1CCc2nc3sc(NC=O)nc3cc2C1 (centres unmarked) [Example 134]; B/C
CC(C)(C)C1CCc2nc3sc(C(=N)N)cc3cc2C1 (centres unmarked) [Example 69]; B/C
CC(C)(C)C1CCc2nc3sc(NC(N)=O)cc3cc2C1 (centres unmarked) [Example 125]; B/C
CC(C)(C)C1CCc2nc3sc(C(=O)NCC(N)=O)cc3cc2C1 (centres unmarked) [Example 81]; A/B

Now look at this one.
**Q:** Reported IC50 (nM), molecule C[C@@H](CO)NC(=O)c1cc2cc3c(nc2s1)CCC([Si](C)(C)C)C3 (some centres unmarked) [Example 190] : ____
**A:** B/C

---

Readings of pIC50 for the listed compounds
molecular target: KSP motor domain (Homo sapiens, UniProt P52732); assay: biochemical; details: KSP inhibitory activity, end-point assay; class symbols (Table 1); read-out: IC50
pIC50: −log10 of the molar value.

Worked set:
CC(C)(C)CC1CCc2nc3sc(C#N)c(N)c3cc2C1 (centres unmarked); 6.00 to 7.00
CC(C)(C)[C@@H]1CCc2nc3sc(C(=O)N[C@H](CN)c4cccc(NC(=O)c5cc[nH]n5)c4)cc3cc2C1; > 7.00
CC1(C)Cc2nc3sc(C#N)c(N)c3cc2C(C)(C)C1; < 5.00
COC(=O)[C@H]1CCCN1C(=O)c1cc2cc3c(nc2s1)CCC(C(C)(C)C)C3 (some centres unmarked); < 5.00

Now look at this one.
**Q:** Reported pIC50, compound CCC(CC)C1CCc2nc3sc(C#N)c(N)c3cc2C1 (centres unmarked) : ____
**A:** 6.00 to 7.00

---

target: KSP motor domain (Homo sapiens, UniProt P52732); experiment: biochemical; conditions: KSP inhibitory activity, end-point assay; class symbols (Table 1); read-out: IC50
Measure: IC50

Worked set:
CC(C)(C)[C@@H]1CCc2nc3sc(C(=O)N[C@H](CN)c4cccc(NC(=O)c5ccco5)c4)cc3cc2C1 [Example 262]; < 100 nM
CC(C)(C)CC(C)(C)C1CCc2nc3sc(C#N)c(N)c3cc2C1 (stereo not drawn) [Example 11]; > 10000 nM

**Q:** State its IC50 on KSP motor domain (Homo sapiens, UniProt P52732): CC(C)(C)[C@@H]1CCc2nc3sc(C(=O)N[C@H](CN)c4cccc(NC(=O)c5ccns5)c4)cc3cc2C1 [Example 235]
**A:** < 100 nM

---

Target: KSP motor domain (Homo sapiens, UniProt P52732)
Sequence (P52732 18-359 limits assumed): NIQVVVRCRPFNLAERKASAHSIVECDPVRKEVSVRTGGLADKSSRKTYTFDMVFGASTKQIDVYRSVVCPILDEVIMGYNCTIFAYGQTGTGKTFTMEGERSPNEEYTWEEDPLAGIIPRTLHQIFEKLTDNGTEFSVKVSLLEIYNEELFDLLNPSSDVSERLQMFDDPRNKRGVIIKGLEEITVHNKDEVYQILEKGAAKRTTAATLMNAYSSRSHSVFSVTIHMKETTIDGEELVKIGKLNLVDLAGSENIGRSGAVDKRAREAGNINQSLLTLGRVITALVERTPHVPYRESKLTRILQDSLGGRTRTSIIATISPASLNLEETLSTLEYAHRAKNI
Assay: biochemical
Conditions: KSP inhibitory activity, end-point assay; class symbols (Table 1); read-out: IC50
pIC50: −log10 of the molar value.
Readings of pIC50 for the listed compounds

Worked set:
CC(CO)NC(=O)c1cc2cc3c(nc2s1)CCC(C(C)(C)C)C3 (stereo not drawn) [Example 83]; 6.00 to 7.00
Cc1cc(C(=O)Nc2ccc([C@@H](CN)NC(=O)c3cc4cc5c(nc4s3)CC[C@@H](C(C)(C)C)C5)cc2)no1; > 7.00

Now look at this one.
**Q:** Reported pIC50, compound Cc1cc(C(=O)Nc2cccc([C@@H](CN)NC(=O)c3cc4cc5c(nc4s3)CC[C@@H](C(C)(C)C)C5)c2)no1 : ____
**A:** > 7.00

---

biological target: KSP motor domain (Homo sapiens, UniProt P52732); assay: biochemical; conditions: exact IC50 values, end-point assay (Table 2); read-out: IC50
Readings of pIC50 for the listed molecules
Kindly note that pIC50 refers to -log10 of the concentration in mol/L and answer with the value alone.

Worked set:
Cc1cnc(C(=O)Nc2cccc([C@@H](CN)NC(=O)c3cc4cc5c(nc4s3)CC[C@@H](C(C)(C)C)C5)c2)cn1; 7.77
CC(C)(C)C1CCc2nc3sc(C#N)cc3cc2C1 (single isomer, unassigned); 7.40
CC(C)(C)C1CCc2nc3sc(C(=O)NC(CN)c4ccccc4)cc3cc2C1 (stereo not shown); 7.60
Cn1ccnc1C(=O)Nc1cccc([C@@H](CN)NC(=O)c2cc3cc4c(nc3s2)CC[C@@H](C(C)(C)C)C4)c1; 7.72
CC(C)(C)C1CCCc2nc3sc(C(N)=O)cc3cc2C1 (stereo not shown); 7.21
CC(C)(C)[C@@H]1CCc2nc3sc(C(=O)N[C@H](CN)c4cccc(NC(=O)c5ccns5)c4)cc3cc2C1; 7.64
CC(C)(C)C1CCc2nc3sc(C(=O)NCC(=N)N)cc3cc2C1 (stereo not shown); 8.10
CC(C)(C)C1CCc2nc3sc(C(=O)NC(CN)c4cccc(NC(=O)c5cnccn5)c4)cc3cc2C1 (stereo not shown); 7.68
CC(C)(C)[C@@H]1CCc2nc3sc(C(=O)N[C@H](CN)c4cccc(NC(=O)c5cn[nH]c5)c4)cc3cc2C1; 8.00

**Q:** State its pIC50 on KSP motor domain (Homo sapiens, UniProt P52732): CC(C)(C)C1CCc2nc3sc(CO)cc3cc2C1 (stereo not shown)
**A:** 7.22

---

Biological target: KSP motor domain (Homo sapiens, UniProt P52732)
Sequence (P52732 18-359 limits assumed): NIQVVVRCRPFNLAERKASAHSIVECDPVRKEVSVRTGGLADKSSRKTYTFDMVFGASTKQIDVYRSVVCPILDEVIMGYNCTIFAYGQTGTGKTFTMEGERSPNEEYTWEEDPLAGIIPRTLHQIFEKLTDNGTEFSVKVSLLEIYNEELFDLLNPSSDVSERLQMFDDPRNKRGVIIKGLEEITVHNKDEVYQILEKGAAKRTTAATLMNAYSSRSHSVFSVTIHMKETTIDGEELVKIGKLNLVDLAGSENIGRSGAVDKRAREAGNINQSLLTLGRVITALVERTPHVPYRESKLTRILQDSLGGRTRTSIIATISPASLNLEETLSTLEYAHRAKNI
Test: biochemical
Details: KSP inhibitory activity, end-point assay; class symbols (Table 1); read-out: IC50
pIC50: −log10 of the molar value.
Measure: pIC50

Worked set:
Cn1cncc1C(=O)Nc1cccc([C@@H](CN)NC(=O)c2cc3cc4c(nc3s2)CC[C@@H](C(C)(C)C)C4)c1 [Example 251]; > 7.00
CC(C)(C)C1CCc2nc3sc(C(=O)N[C@H](CN)c4cccc(N)c4)cc3cc2C1 (stereo partly drawn) [Example 217]; > 7.00

Now look at this one.
**Q:** Reported pIC50, compound CC(C)(C)C1CCc2nc3sc(C(=O)N[C@H](C#N)c4ccccc4)cc3cc2C1 (stereo partly drawn) [Example 165] : ____
**A:** < 5.00
